The origin of these recorded values is paper PMC8954769.

# assay-name: Pharmacokinetic study in mice (IV and PO)
# Format: in vivo, ICR mice
# assay-setup: male, ICR, in vivo; mouse, intravenous, 2 mg/kg
quantity-measured: half-life

Data request: Query (compound): N#Cc1ccc(O[C@H]2CC[C@H](NC(=O)c3ccc(N4CCC(CN5CCN(c6cc7c(cc6F)C(=O)N(C6CCC(=O)NC6=O)C7=O)CC5)CC4)nn3)CC2)cc1Cl (stereo partly shown) [ARV-110, bavdegalutamide] ; field requested: half-life
Data returned: 685 min

###

# assay-name: In vitro plasma stability, human
# Type: in vitro ADME
# assay-setup: 37 °C, incubation 4 h, read-out: T1/2 in plasma
quantity-measured: half-life at 1 μM (min)
Respond numerically; units are min and should not be typed.

Data request: Query (molecule): N#Cc1ccc(O[C@H]2CC[C@H](NC(=O)c3ccc(N4CCC(CN5CCN(c6cc7c(cc6F)C(=O)N(C6CCC(=O)NC6=O)C7=O)CC5)CC4)nn3)CC2)cc1Cl (stereo partly shown) [ARV-110, bavdegalutamide] ; field requested: half-life at 1 μM
Data returned: 24

###

# assay-name: In vitro plasma stability, rat
# Type: in vitro ADME
# assay-setup: 37 °C, incubation 4 h, read-out: T1/2 in plasma
quantity-measured: half-life at 1 μM (min)
Respond numerically; units are min and should not be typed.

Data request: Query (molecule): N#Cc1ccc(O[C@H]2CC[C@H](NC(=O)c3ccc(N4CCC(CN5CCN(c6cc7c(cc6F)C(=O)N(C6CCC(=O)NC6=O)C7=O)CC5)CC4)nn3)CC2)cc1Cl (stereo partly shown) [ARV-110, bavdegalutamide] ; field requested: half-life at 1 μM
Data returned: 44

###

# assay-name: Pharmacokinetic study in mice (IV and PO)
# Type: in vivo, ICR mice
# assay-setup: male, ICR, in vivo; mouse, oral, 5 mg/kg
quantity-measured: AUC(0-inf) (ng·h/mL)
Respond numerically; units are ng·h/mL and should not be typed.

Data request: Query (compound): N#Cc1ccc(O[C@H]2CC[C@H](NC(=O)c3ccc(N4CCC(CN5CCN(c6cc7c(cc6F)C(=O)N(C6CCC(=O)NC6=O)C7=O)CC5)CC4)nn3)CC2)cc1Cl (stereo partly shown) [ARV-110, bavdegalutamide] ; field requested: AUC(0-inf)
Data returned: 10700

###

# assay-name: Hepatic microsomal metabolic stability, mouse
# Format: in vitro ADME
# assay-setup: pH 7.4, mouse hepatic microsomes 0.5 mg/mL, 1 mM NADPH, 37 °C, read-out: elimination half-life (T1/2) in hepatic microsomes
quantity-measured: half-life at 1 μM (h)
Respond numerically; units are h and should not be typed.

Data request: Query (compound): N#Cc1ccc(O[C@H]2CC[C@H](NC(=O)c3ccc(N4CCC(CN5CCN(c6cc7c(cc6F)C(=O)N(C6CCC(=O)NC6=O)C7=O)CC5)CC4)nn3)CC2)cc1Cl (stereo partly shown) [ARV-110, bavdegalutamide] ; field requested: half-life at 1 μM
Data returned: 6.92

###

# assay-name: Pharmacokinetic study in rats (IV and PO)
# Assay type: in vivo, Sprague Dawley (SD) rats
# assay-setup: male, Sprague Dawley, in vivo; rat, intravenous, 2 mg/kg
quantity-measured: AUC(0-inf) (ng·h/mL)
Respond numerically; units are ng·h/mL and should not be typed.

Data request: Query (compound): N#Cc1ccc(O[C@H]2CC[C@H](NC(=O)c3ccc(N4CCC(CN5CCN(c6cc7c(cc6F)C(=O)N(C6CCC(=O)NC6=O)C7=O)CC5)CC4)nn3)CC2)cc1Cl (stereo partly shown) [ARV-110, bavdegalutamide] ; field requested: AUC(0-inf)
Data returned: 4860

###

# assay-name: Pharmacokinetic study in rats (IV and PO)
# Assay type: in vivo, Sprague Dawley (SD) rats
# assay-setup: male, Sprague Dawley, in vivo; rat, intravenous, 2 mg/kg
# Description: The validated LC-MS/MS method was applied to determine ARV-110 in pharmacokinetic studies in rats and mice. […] For plasma sample preparation, 20 μL of rat or mouse plasma was added to 20 μL of IS solution (10 μg/mL) and 110 μL of acetonitrile. […] Cmax and Tmax were determined directly from the plasma concentration–time profile of each animal. […]
quantity-measured: Tmax (min)
Respond numerically; units are min and should not be typed.

Data request: Query (compound): N#Cc1ccc(O[C@H]2CC[C@H](NC(=O)c3ccc(N4CCC(CN5CCN(c6cc7c(cc6F)C(=O)N(C6CCC(=O)NC6=O)C7=O)CC5)CC4)nn3)CC2)cc1Cl (stereo partly shown) [ARV-110, bavdegalutamide] ; field requested: Tmax
Data returned: 4.98

###

# assay-name: Pharmacokinetic study in rats (IV and PO)
# Assay type: in vivo, Sprague Dawley (SD) rats
# assay-setup: male, Sprague Dawley, in vivo; rat, intravenous, 2 mg/kg
quantity-measured: half-life (h)
Respond numerically; units are h and should not be typed.

Data request: Query (compound): N#Cc1ccc(O[C@H]2CC[C@H](NC(=O)c3ccc(N4CCC(CN5CCN(c6cc7c(cc6F)C(=O)N(C6CCC(=O)NC6=O)C7=O)CC5)CC4)nn3)CC2)cc1Cl (stereo partly shown) [ARV-110, bavdegalutamide] ; field requested: half-life
Data returned: 13.6

###

# assay-name: Pharmacokinetic study in mice (IV and PO)
# Assay type: in vivo, ICR mice
# assay-setup: male, ICR, in vivo; mouse, intravenous, 2 mg/kg; read-out: Vss
quantity-measured: Vd

Data request: Query (compound): N#Cc1ccc(O[C@H]2CC[C@H](NC(=O)c3ccc(N4CCC(CN5CCN(c6cc7c(cc6F)C(=O)N(C6CCC(=O)NC6=O)C7=O)CC5)CC4)nn3)CC2)cc1Cl (stereo partly shown) [ARV-110, bavdegalutamide] ; field requested: Vd
Data returned: 2.37 L/kg
